experiment_description: Peptide stability in simulated intestinal fluid (SIF)
Assay type: in vitro ADME
run_parameters: pig, 37 °C, porcine pancreatin, pH 6.8, 1 h
*1 amine or outer side, *2 acyl side, *3 side chain or, on linkers, in order; H or OH if unused. Where a SMILES comes first, the peptide text is derived from it. Bridges are numbered along the chain shown (N, C = ends). [ ]: non-standard residue; d: D form. 2Nal = N[C@@H](Cc1ccc2ccccc2c1)C(=O)O; CH2COCH2 = O=C(C[*:1])C[*:2]; 3Amb = NCc1cccc(C(=O)O)c1
# remaining at 1 h, 10 µM per record follows
Kindly provide the numeric value in % only, without the unit symbol.

| compound | remaining at 1 h, 10 µM (%) |
| --- | --- |
| CC(=O)N[C@@H](CC(=O)O)C(=O)N[C@H]1CCC(=O)NCCCC[C@@H](C(=O)N[C@@H](CCCNC(=N)N)C(N)=O)NC(=O)[C@H](CC(C)C)NC(=O)[C@H](Cc2ccc3ccccc3c2)NC(=O)[C@H](Cc2c[nH]c3ccccc23)NC(=O)[C@@H]2CSCC(=O)CSC[C@H](NC(=O)[C@H](CO)NC1=O)C(=O)N[C@@H](Cc1c[nH]c3ccccc13)C(=O)N[C@@H](CCC(N)=O)C(=O)N2 [Ref 17, reference compound] | 0 |

Ask: State the recorded remaining at 1 h, 10 µM for this entry: CC[C@H](C)[C@@H]1NC(=O)[C@@H]2CCCCNC(=O)CC[C@@H](C(=O)N[C@H](Cc3cnc[nH]3)C(=O)N[C@@H](Cc3cccnc3)C(=O)NC)NC(=O)[C@](C)(CC(C)C)NC(=O)[C@H](Cc3ccc4ccccc4c3)NC(=O)[C@H](Cc3ccc(OCCN)cc3)NC(=O)[C@H](CCC(=O)N2)NC(=O)[C@H](CCC(N)=O)NC(=O)[C@H](Cc2c[nH]c3ccccc23)NC(=O)[C@H](C(C)C)NC1=O
Result: 101

Ask: Cool, now CC(C)C[C@@H]1NC(=O)[C@H](Cc2ccc3ccccc3c2)NC(=O)[C@H](Cc2c[nH]c3ccccc23)NC(=O)[C@@H]2CSCC(=O)CSC[C@H](NC(=O)[C@H](CO)NC(=O)c3cccc(c3)CNC(=O)CC[C@@H](C(=O)N[C@@H](CCCNC(=N)N)C(N)=O)NC1=O)C(=O)N[C@@H](Cc1c[nH]c3ccccc13)C(=O)N[C@@H](CCC(N)=O)C(=O)N2 [Ref 37, reference compound] ([3Amb]SCWQCW[2Nal]LER-NH2; linker 3-6 via CH2COCH2; lactam N-10)
Result: 0

----------
experiment_description: Peptide stability in simulated intestinal fluid (SIF)
Format: in vitro ADME
run_parameters: pig, 37 °C, porcine pancreatin, pH 6.8, 1 h
Procedure: SGF was prepared by dissolving sodium chloride (0.2 g) in 50 mL of water. A volume of 0.7 mL of 10 M HCl was added to adjust the pH of the solution to 1.2 and the volume made up to 100 mL with water. […] SIF was prepared by dissolving monobasic potassium phosphate (0.68 g) in 50 mL of water and adjusting the pH to 6.8 with 1 M NaOH. […] The incubation was performed at 37 °C with gentle shaking. […] Percent remaining at each timepoint was calculated relative to timepoint zero based on absolute peak areas. […]
*1 amine or outer side, *2 acyl side, *3 side chain or, on linkers, in order; H or OH if unused. Where a SMILES comes first, the peptide text is derived from it. Bridges are numbered along the chain shown (N, C = ends). [ ]: non-standard residue; d: D form. 2Nal = N[C@@H](Cc1ccc2ccccc2c1)C(=O)O; AEF = NCCOc1ccc(C[C@H](N)C(=O)O)cc1; X1 = O=C(Cc1ccc(CN[*:1])cc1)[*:2]; 3Pal = N[C@@H](Cc1cccnc1)C(=O)O; αMeL = CC(C)C[C@](C)(N)C(=O)O; CH2COCH2 = O=C(C[*:1])C[*:2]; Dab = NCC[C@H](N)C(=O)O
Catalogue of remaining at 1 h, 10 µM values
Kindly provide the numeric value in % only, without the unit symbol.

| molecule | quantity_unit | remaining at 1 h, 10 µM |
| --- | --- | --- |
| CC(C)C[C@]1(C)NC(=O)[C@H](Cc2ccc3ccccc3c2)NC(=O)[C@H](Cc2ccc(OCCN)cc2)NC(=O)[C@@H]2CSCC(=O)CSC[C@H](NC(=O)[C@H](CO)NC(=O)Cc3ccc(cc3)CNC(=O)CC[C@@H](C(=O)N[C@@H](CCN)C(=O)N[C@@H](Cc3cccnc3)C(N)=O)NC1=O)C(=O)N[C@@H](Cc1c[nH]c3ccccc13)C(=O)N[C@@H](CCC(N)=O)C(=O)N2 [Ref 120, reference compound] ([X1]SCWQC[AEF][2Nal][αMeL]E[Dab][3Pal]-NH2; linker 3-6 via CH2COCH2; lactam N-10) | % | 82 |

Now consider a different molecule.
Ask: Could you tell me which remaining at 1 h, 10 µM is on file for CNC(=O)[C@H](Cc1cccnc1)NC(=O)[C@H](CCN)NC(=O)[C@@H]1CCC(=O)NCCCC[C@@H]2NC(=O)CC[C@H](NC(=O)[C@H](CCC(N)=O)NC(=O)[C@H](Cc3c[nH]c4ccccc34)NC(=O)CCN(C)C2=O)C(=O)N[C@@H](Cc2ccc(OCCN)cc2)C(=O)N[C@@H](Cc2ccc3ccccc3c2)C(=O)N[C@@](C)(CC(C)C)C(=O)N1 [Compound 81] ?
Result: 101

----------
Catalogue of compounds with associated Emax
subject_of_test: human IL-23R (Homo sapiens, UniProt Q5VWK5)
Sequence (Q5VWK5 22-629): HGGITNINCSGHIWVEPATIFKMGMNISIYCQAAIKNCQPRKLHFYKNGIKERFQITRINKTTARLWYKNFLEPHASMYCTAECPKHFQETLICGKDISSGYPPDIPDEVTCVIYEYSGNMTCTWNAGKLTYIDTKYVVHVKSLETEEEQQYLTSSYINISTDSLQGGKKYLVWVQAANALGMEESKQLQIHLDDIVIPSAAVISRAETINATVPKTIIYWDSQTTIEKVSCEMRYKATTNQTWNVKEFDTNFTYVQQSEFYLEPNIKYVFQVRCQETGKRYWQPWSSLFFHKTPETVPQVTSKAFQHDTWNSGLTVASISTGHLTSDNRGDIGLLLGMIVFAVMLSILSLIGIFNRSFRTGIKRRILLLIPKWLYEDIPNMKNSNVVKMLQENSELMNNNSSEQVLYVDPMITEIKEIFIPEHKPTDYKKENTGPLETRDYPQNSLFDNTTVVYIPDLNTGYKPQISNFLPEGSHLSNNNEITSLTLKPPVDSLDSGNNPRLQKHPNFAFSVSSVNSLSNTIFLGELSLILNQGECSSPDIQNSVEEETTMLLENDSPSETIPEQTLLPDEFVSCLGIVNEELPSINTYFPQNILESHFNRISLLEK
experiment_description: biochemical
run_parameters: read-out: % displacement (hIL-23R NIuc)
Where a SMILES comes first, the peptide text is derived from it. Bridges are numbered along the chain shown (N, C = ends). [ ]: non-standard residue; d: D form. Trp(1-Me) = Cn1cc(C[C@H](N)C(=O)O)c2ccccc21; 2Nal = N[C@@H](Cc1ccc2ccccc2c1)C(=O)O; AEF = NCCOc1ccc(C[C@H](N)C(=O)O)cc1; 3Pal = N[C@@H](Cc1cccnc1)C(=O)O; β3hE = N[C@@H](CCC(=O)O)CC(=O)O; αMeL = CC(C)C[C@](C)(N)C(=O)O; Dab = NCC[C@H](N)C(=O)O; βAla = NCCC(=O)O
State just the number; it will be interpreted in %.

Illustrative cases are given below, each with its answer.
| compound | subject_of_test | quantity_measured | reported_measurement |
| --- | --- | --- | --- |
| CC[C@H](C)[C@@H]1NC(=O)[C@@H]2CCCCNC(=O)CC[C@@H](C(=O)NCC(=O)N[C@H](Cc3cccnc3)C(N)=O)NC(=O)[C@](C)(C(C)C)NC(=O)[C@H](Cc3ccc4ccccc4c3)NC(=O)[C@@H](Cc3ccccc3)NC(=O)[C@H](CCC(=O)N2)NC(=O)[C@H](CCC(N)=O)NC(=O)[C@H](Cc2c[nH]c3ccccc23)NC(=O)[C@H](C(C)C)NC1=O | human IL-23R (Homo sapiens, UniProt Q5VWK5) | Emax | 86 |
| CC(C)C[C@]1(C)NC(=O)[C@H](Cc2ccc3ccccc3c2)NC(=O)[C@H](Cc2ccc(OCCN)cc2)NC(=O)[C@@H]2CCC(=O)N[C@@H](CCCCCNC(=O)CC[C@@H](C(=O)N[C@@H](CCN)C(=O)N[C@@H](Cc3cccnc3)C(N)=O)NC1=O)C(=O)N[C@@H]([C@@H](C)O)C(=O)N[C@@H](C(C)C)C(=O)N[C@@H](Cc1c[nH]c3ccccc13)C(=O)N[C@@H](CCC(N)=O)C(=O)N2 | human IL-23R (Homo sapiens, UniProt Q5VWK5) | Emax | 102 |
| CC[C@H](C)[C@@H]1NC(=O)[C@@H]2CCCCNC(=O)CC[C@@H](CC(=O)N[C@@H](Cc3cccnc3)C(=O)NC)NC(=O)[C@](C)(CC(C)C)NC(=O)[C@H](Cc3ccc4ccccc4c3)NC(=O)[C@H](Cc3ccc(OCCN)cc3)NC(=O)[C@H](CCC(=O)N2)NC(=O)[C@H](CCC(N)=O)NC(=O)[C@H](Cc2c[nH]c3ccccc23)NC(=O)[C@H](C(C)C)NC1=O [Compound 61] (KIVWQE[AEF][2Nal][αMeL][β3hE][3Pal]-NHMe; lactam 1-10, N-6) | human IL-23R (Homo sapiens, UniProt Q5VWK5) | Emax | 99 |
| CNC(=O)[C@H](Cc1cccnc1)NC(=O)[C@H](CCN)NC(=O)[C@@H]1CCC(=O)NCCCC[C@@H]2C(=O)N[C@@H]([C@@H](C)O)C(=O)N[C@@H](Cc3c[nH]c4ccccc34)C(=O)N[C@@H](CCC(N)=O)C(=O)N[C@@H](CCc3cn2nn3)C(=O)N[C@@H](Cc2ccc(OCCN)cc2)C(=O)N[C@@H](Cc2ccc3ccccc3c2)C(=O)N[C@@](C)(CC(C)C)C(=O)N1 | human IL-23R (Homo sapiens, UniProt Q5VWK5) | Emax | 96 |

# evaluate next
Ask: // Emax lookup, key: CNC(=O)[C@H](Cc1cccnc1)NC(=O)[C@H](CCN)NC(=O)[C@@H]1CCC(=O)NCCCC[C@@H]2NC(=O)CC[C@H](NC(=O)[C@H](CCC(N)=O)NC(=O)[C@H](Cc3cn(C)c4ccccc34)NC(=O)CCNC2=O)C(=O)N[C@@H](Cc2ccc(OCCN)cc2)C(=O)N[C@@H](Cc2ccc3ccccc3c2)C(=O)N[C@@](C)(CC(C)C)C(=O)N1 [Compound 79] (K[βAla][Trp(1-Me)]QE[AEF][2Nal][αMeL]E[Dab][3Pal]-NHMe; lactam 1-9, N-5)
Result: 100

Hello, the source for this data is patent EP4471048A1, in case you need it.
